# experimental_target: UniProt P60953
# assay_overview: small GTPase panel, fluorescent GTP binding blockade – biochemical, Mg buffer, constant GTP, RhoA, Rac1, Cdc42, mechanism study for Ras-family GTPase inhibitor project, profiling panel (AID 2393)
# measurement_conditions: GST-GTPase beads, BODIPY-GTP binding, flow cytometry, Cdc42ACT, at 100 µM (top of the series)
The source made the active and inactive calls.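 How the source made its calls: active means none, because compounds meeting the potency rule were filed inconclusive for hitting several proteins; inconclusive means EC50 under 20 µM with over 15% binding change; inactive means the rest.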
readout_type: GTP binding remaining (% of DMSO)

[[record]]
molecule = "NS(=O)(=O)c1ccc(N2N=C(c3ccccc3)CC2c2ccccc2Cl)cc1 (configuration not stated)"
experimental_target = "UniProt P60953"
observed_result = "inactive"

[[record]]
molecule = "COc1ccc(-c2ccc(CCC(=O)N3CCN(c4cc(C)ccc4C)CC3)o2)cc1"
experimental_target = "UniProt P60953"
observed_result = "inactive"

[[record]]
molecule = "COc1ccc(C2CC(c3ccc(Br)cc3)=NN2c2ccc(S(N)(=O)=O)cc2)cc1 (configuration not stated)"
experimental_target = "UniProt P60953"
observed_result = "inactive"

[[record]]
molecule = "COc1ccc(-c2noc(CCC(=O)N3CCC(c4cc(C)ccc4C)CC3)n2)cc1"
experimental_target = "UniProt P60953"
observed_result = "inactive"

[[record]]
molecule = "COc1ccc(C2CC(c3cccc(C(F)(F)F)c3)=NN2c2ccc(S(N)(=O)=O)cc2)cc1 (configuration not stated)"
experimental_target = "UniProt P60953"
observed_result = "inactive"

[[record]]
molecule = "COc1ccc(C2CC(c3ccc(C(F)(F)F)cc3)=NN2c2ccc(S(N)(=O)=O)cc2)cc1 (configuration not stated)"
experimental_target = "UniProt P60953"
observed_result = "inactive"

[[record]]
molecule = "COc1ccc(C2CC(c3ccc(N(C)C)cc3)=NN2c2ccc(S(N)(=O)=O)cc2)cc1 (configuration not stated)"
experimental_target = "UniProt P60953"
observed_result = "inactive"

[[record]]
molecule = "COc1ccc(-c2ccc(CCC(=O)N3CCN(c4cc(C)ccc4C)CC3)s2)cc1"
experimental_target = "UniProt P60953"
observed_result = "inactive"

[[record]]
molecule = "COc1ccc(C2CC(c3ccccc3C)=NN2c2ccc(S(N)(=O)=O)cc2)cc1 (configuration not stated)"
experimental_target = "UniProt P60953"
observed_result = "inactive"

[[record]]
molecule = "COc1ccc(-c2ccc(CCC(=O)N3CCN(c4cc(C)ccc4C)CC3)[nH]2)cc1"
experimental_target = "UniProt P60953"
observed_result = "inactive"

[[record]]
molecule = "COc1ccc(C2CC(C)=NN2c2ccc(S(N)(=O)=O)cc2)cc1 (configuration not stated)"
experimental_target = "UniProt P60953"
observed_result = "inactive"

[[record]]
molecule = "COc1ccc(-c2cc(CCC(=O)N3CCN(c4cc(C)ccc4C)CC3)[nH]n2)cc1"
experimental_target = "UniProt P60953"
observed_result = "inactive"


---

# experimental_target: UniProt:P61586
# assay_overview: small GTPase panel, fluorescent GTP binding blockade – biochemical, Mg buffer, constant GTP, RhoA, Rac1, Cdc42, mechanism study for Ras-family GTPase inhibitor project, profiling panel (AID 2393)
# measurement_conditions: GST-GTPase beads, BODIPY-GTP binding, flow cytometry, RhoACT, at 100 µM (top of the series)
Activity calls are given as the source filed them.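 How the source made its calls: active means none, because compounds meeting the potency rule were filed inconclusive for hitting several proteins; inconclusive means EC50 under 20 µM with over 15% binding change; inactive means the rest.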
readout_type: GTP binding remaining (% of DMSO)

[[record]]
molecule = "Cc1ccccc1C1CC(c2ccccc2)=NN1c1ccc(S(N)(=O)=O)cc1 (stereo not given)"
observed_result = "inactive"

[[record]]
molecule = "NS(=O)(=O)c1ccc(N2N=C(c3ccccc3)CC2c2cccc(Cl)c2)cc1 (stereo not given)"
observed_result = "inactive"

[[record]]
molecule = "COc1ccc(C2CC(c3cccs3)=NN2c2ccc(S(N)(=O)=O)cc2)cc1 (stereo not given)"
observed_result = "inactive"

[[record]]
molecule = "COc1ccc(C2=NN(c3ccc(S(N)(=O)=O)cc3)C(c3ccc(OC)cc3)C2)cc1 (stereo not given)"
observed_result = "inactive"

[[record]]
molecule = "COc1ccc(C2CC(c3ccccc3C)=NN2c2ccc(S(N)(=O)=O)cc2)cc1 (stereo not given)"
observed_result = "inactive"


Values from PubChem BioAssay AID2393
